Tested on: CCRIS mutagenicity, Ames/micronucleus/aberration tests
Experiment: CCRIS mutagenicity studies
Conditions: Test System: AMES SALMONELLA TYPHIMURIUM; Strain/Indicator: TA1538; Metabolic Activation: NONE; Method: STANDARD PLATE
Calls of active or inactive are those of the source. How the calls were made is not given here.
Outcomes: active, inactive

>>> assigned_label("CCCCC/C=C\\C/C=C\\CCCCCCCC(=O)O")
"inactive"
>>> assigned_label("CC[N+](CC)=c1ccc2nc3c(cc(N)c4ccccc43)oc-2c1")
"inactive"
>>> assigned_label("Clc1cc(Cl)c(Cl)cc1Cl")
"inactive"
>>> assigned_label("CCCCC(CC)COC(=O)c1ccc(N(C)C)c([N+](=O)[O-])c1 (stereo not drawn)")
"active"
>>> assigned_label("CN(C)CCCNc1c2ccccc2nc2ccc([N+](=O)[O-])cc12")
"active"
>>> assigned_label("CN(C)N=Nc1ccc(Br)cc1")
"inactive"
>>> assigned_label("COc1cc(CCC(C)=O)ccc1O")
"inactive"
>>> assigned_label("COC(=O)Nc1nc2ccc(OS(=O)(=O)c3ccc(F)cc3)cc2[nH]1")
"inactive"
>>> assigned_label("O=C(CCCN1CCN(c2ccccn2)CC1)c1ccc(F)cc1")
"inactive"
>>> assigned_label("CCCCC=O")
"inactive"
>>> assigned_label("Nc1ccc(Cl)c(C(F)(F)F)c1")
"inactive"
>>> assigned_label("Nc1c(S(=O)(=O)O)cc(NC2CCCCC2)c2c1C(=O)c1ccccc1C2=O")
"inactive"
>>> assigned_label("N#Cc1ccccc1")
"inactive"
>>> assigned_label("Cc1cn2c([N+](=O)[O-])c(-c3ccc([N+](=O)[O-])cc3)nc2s1")
"active"
>>> assigned_label("O=C(CCCN1CCC(O)(c2ccc(Cl)cc2)CC1)c1ccc(F)cc1")
"inactive"
>>> assigned_label("Nc1ccc(N=Nc2ccc(N=Nc3c(S(=O)(=O)O)cc4c(c3N)C(=O)/C(=N\\Nc3ccc(N=Nc5ccc(N)cc5N)cc3)C(S(=O)(=O)O)=C4)cc2)c(N)c1")
"inactive"
>>> assigned_label("O=[N+]([O-])c1c(-c2ccc(Cl)cc2)nc2n1CCS2")
"inactive"
>>> assigned_label("CC(=O)OCc1cc(C(C)=O)ccc1OC(C)=O")
"inactive"
>>> assigned_label("CC(C)c1c(C(=O)Nc2ccccc2)c(-c2ccccc2)c(-c2ccc(F)cc2)n1CC[C@@H](O)C[C@@H](O)CC(=O)O")
"inactive"
>>> assigned_label("C[C@H]1CCC[C@H](O)CCCCCc2cc(O)cc(O)c2C(=O)O1")
"inactive"
>>> assigned_label("Nc1ccccc1[N+](=O)[O-]")
"inactive"
>>> assigned_label("Cc1ccc(C(O)(P(=O)(O)O)P(=O)(O)O)cc1N(CCCl)CCCl")
"inactive"
>>> assigned_label("C=C(C)C(=O)OCCOC(=O)C(=C)C")
"inactive"

###

Tested on: CCRIS mutagenicity, Ames/micronucleus/aberration tests
Experiment: CCRIS mutagenicity studies
Conditions: Test System: AMES SALMONELLA TYPHIMURIUM; Strain/Indicator: TA100; Metabolic Activation: RAT, LIVER, S-9; Method: STANDARD PLATE
Source text: The CCRIS database contains chemical records with carcinogenicity, mutagenicity, tumor promotion, and tumor inhibition test results. It was developed by the National Cancer Institute (NCI). Data are derived from studies cited in primary journals, current awareness tools, NCI reports, and other sources. Test results have been reviewed by experts in carcinogenesis and mutagenesis. CCRIS provides historical information from the years 1985 - 2011. It is no longer updated. […]
The source made the active and inactive calls. The rule behind the calls is not given here.
Outcomes: 1 = active, 0 = inactive

>>> assigned_label("CCOP(=O)(OCC)Oc1cc(-c2ccccc2)on1")
0
>>> assigned_label("CCN(N=O)c1ccccc1")
0
>>> assigned_label("CCCCCC/C=C\\CCCCCCOC(C)=O")
0
>>> assigned_label("C[C@H]1CCC[C@H](O)CCCCCc2cc(O)cc(O)c2C(=O)O1")
0
>>> assigned_label("COC1=CC=CC=CC1")
0
>>> assigned_label("CCc1cccc2c(CCO)c[nH]c12")
0
>>> assigned_label("OC[C@H]1OC(O[C@H]2[C@H](O)[C@@H](O)C(O[C@H]3[C@H](O)[C@@H](O)[C@@H](O)O[C@@H]3CO)O[C@@H]2CO)[C@H](O)[C@@H](O)[C@@H]1O (stereo not given in full)")
0
>>> assigned_label("CC(=O)Nc1ccc(C(=O)CCl)cc1")
0
>>> assigned_label("C[C@H]1CCCC(=O)CCC/C=C/c2cc(O)cc(O)c2C(=O)O1")
0
>>> assigned_label("CCOC(=O)C1=C(C)NC(C)=C(C(=O)OCC2COC3(CCCC3)O2)C1c1cccc(Cl)c1 (stereo not given)")
0
>>> assigned_label("CCCOS(=O)(=O)c1ccc(C)cc1")
1
>>> assigned_label("CCCCCC(=O)Cc1cc(O)cc2c1C(=O)Oc1cc(O)c(C(=O)O)c(CCCCC)c1O2")
0
>>> assigned_label("COc1ccc(N)c(OC)c1")
0
>>> assigned_label("CCOS(=O)(=O)c1ccc(C)cc1")
0
>>> assigned_label("CC1=CCC(O)(C(C)C)CC1 (stereo not given)")
0

###

System: CCRIS mutagenicity, Ames/micronucleus/aberration tests
Assay: CCRIS mutagenicity studies
Conditions: Test System: AMES SALMONELLA TYPHIMURIUM; Strain/Indicator: TA97; Metabolic Activation: NONE; Method: PREINCUBATION
Calls of active or inactive are those of the source. The rule behind the calls is not given here.
property: mutagenic call

>>> reported("CCCCC/C(C=O)=C/c1ccccc1")
"inactive; negative"
>>> reported("CCc1ccccc1")
"inactive; negative"
>>> reported("Nc1cccc2c(=O)[nH][nH]c(=O)c12")
"inactive; negative"
>>> reported("CNc1ccc(N(CCO)CCO)cc1[N+](=O)[O-]")
"active; positive"
>>> reported("O=C(O)c1ccc(/C=N/n2nnc3c([nH]c4ccccc43)c2=O)cc1")
"active; positive"
>>> reported("O=C(OOC(=O)c1ccccc1)c1ccccc1")
"inactive; negative"
>>> reported("O=C1c2ccccc2C(=O)C1(O)O")
"inactive; negative"
>>> reported("C=C(C)C#N")
"inactive; negative"
>>> reported("Clc1ccc(COC(Cn2ccnc2)c2ccc(Cl)cc2Cl)cc1 (stereo unspecified)")
"inactive; negative"
>>> reported("Nc1cc([N+](=O)[O-])cc(Cl)c1O")
"active; positive"
>>> reported("CCC(C)=O")
"inactive; negative"
>>> reported("C=CC(=O)OCCBr")
"inactive; negative"
>>> reported("N#Cc1ccccc1")
"inactive; negative"
>>> reported("CN(C)c1ccccc1")
"inactive; negative"
>>> reported("O=C(O)CS")
"inactive; negative"
>>> reported("c1ccc2[nH]ccc2c1")
"inactive; negative"

###

System: CCRIS mutagenicity, Ames/micronucleus/aberration tests
Experiment: CCRIS mutagenicity studies
Conditions: Test System: AMES SALMONELLA TYPHIMURIUM; Strain/Indicator: TA100; Metabolic Activation: RAT, LIVER, S-9, AROCLOR 1254; Method: STANDARD PLATE
Activity calls are given as the source filed them. How the calls were made is not given here.
Outcomes: yes (active), no (inactive)

>>> assigned_label("Cc1cccc2c1-c1ccccc1C2C (stereo not drawn)")
"yes"
>>> assigned_label("O=S(=O)(Nc1ccc(Cl)cc1)c1cccc2cccnc12")
"no"
>>> assigned_label("Fc1ccccn1")
"no"
>>> assigned_label("O=C1c2ccccc2C(=O)c2ccccc21")
"no"
>>> assigned_label("O=c1ccc2cc3cc4cccc5ccc(c2c1)c3c54")
"yes"
>>> assigned_label("CC(C)(C)NCC(O)c1ccc(O)c(NC(N)=O)c1 (stereo not drawn)")
"no"
>>> assigned_label("Cc1nn(C)c(N)c1C(=O)c1ccccc1F")
"yes"
>>> assigned_label("Cc1c([N+](=O)[O-])c2ccccc2c2ccc3ccccc3c12")
"yes"
>>> assigned_label("O=C([O-])[C@H](O)[C@@H](O)[C@H](O)[C@H](O)CO.O=C([O-])[C@H](O)[C@@H](O)[C@H](O)[C@H](O)CO.[Mn+2]")
"no"
>>> assigned_label("Cc1ccc2cc3c(ccc4ccccc43)c3c2c1CC3")
"yes"
>>> assigned_label("O=c1[nH]c(=O)n([C@H]2C[C@H](O)[C@@H](CO)O2)cc1CO")
"yes"
>>> assigned_label("CC1(OO)c2ccccc2-c2ccccc21")
"yes"
>>> assigned_label("C=CCC1OC(=O)C=CC1O (stereo not drawn)")
"no"
>>> assigned_label("C[C@H]1CCCC(=O)CCC/C=C/c2cc(O)cc(O)c2C(=O)O1")
"no"
>>> assigned_label("CC(C)(O)CCc1ccc(O)c2c(=O)c3c(O)c4c(cc3oc12)O[C@H]1OC=C[C@@]41O")
"yes"
>>> assigned_label("O=CN(O)c1ccc(Cl)c(Cl)c1")
"no"
>>> assigned_label("CCOC(=O)c1[nH]c2ccccc2c1N=Cc1ccc([N+](=O)[O-])cc1")
"no"
>>> assigned_label("CC(C)(Cl)Cl")
"no"
>>> assigned_label("COC(=O)C12OC1(C)C(C(C)C)OC2=O (stereo not drawn)")
"yes"
>>> assigned_label("Cc1c(N)c(=O)n(-c2ccccc2)n1C")
"no"
>>> assigned_label("C=CC(=O)OC(C)(C)C")
"no"
>>> assigned_label("O=c1cc(CO)occ1O")
"yes"
>>> assigned_label("ClCC(Cl)Cl")
"no"
>>> assigned_label("Cc1cc(O)ccc1Cl")
"no"
>>> assigned_label("Cc1c(N=O)c(=O)n(-c2ccccc2)n1C")
"yes"
>>> assigned_label("O=S(=O)(Nc1ccc(Cl)cc1Cl)c1cccc2cccnc12")
"no"
>>> assigned_label("CN=C1C=CC(=C(c2ccc(N(C)C)cc2)c2ccc(N(C)C)cc2)C=C1")
"no"
>>> assigned_label("c1ccccc1")
"no"
>>> assigned_label("c1ccc2c(c1)ccc1cc3c(ccc4ccncc43)cc12")
"yes"
>>> assigned_label("CC(C)[C@@H]1CC[C@@H](C)C[C@H]1O")
"no"
>>> assigned_label("C[C@]12CC[C@H](OC(=O)/C=C/c3cccc(N(CCCl)CCCl)c3)C[C@@H]1CC[C@@H]1[C@@H]2CC[C@]2(C)NC(=O)CC[C@@H]12")
"no"
>>> assigned_label("Cc1ccc2ccc3c(ccc4c5cccc(C)c5ccc43)c2c1")
"no"
>>> assigned_label("CCN(N)c1ccccc1")
"no"
>>> assigned_label("CN(C)CC(=O)O")
"no"
>>> assigned_label("O=C1C(c2[nH]c3ccccc3c2O)=Nc2ccccc21")
"no"
>>> assigned_label("O=C(c1ccc([N+](=O)[O-])cc1)[C@@H]1O[C@@H]1c1ccccc1")
"yes"
>>> assigned_label("O=c1cc(-c2ccc(O)cc2)oc2cc(O)cc(O)c12")
"no"
>>> assigned_label("Clc1ccc2c(c1)C(c1ccccc1)=NCc1nncn1-2")
"no"
>>> assigned_label("CCCOc1cc(N=Nc2ccccc2)ccc1N=Nc1c(S(=O)(=O)O)cc2ccc(N)cc2c1O")
"no"
>>> assigned_label("Cc1cc(N(CCO)CCO)ccc1N=Nc1ccc(N)cc1")
"no"
>>> assigned_label("COc1c(Cl)ccc(Cl)c1C(=O)O")
"no"
>>> assigned_label("C=CCOc1ccccc1OCC(O)CNC(C)C (stereo not drawn)")
"no"
>>> assigned_label("CC(=O)C(Cl)Cl")
"yes"
>>> assigned_label("CCCCC/C=C\\C/C=C\\CCCCCCCC(=O)O")
"no"
>>> assigned_label("CCOCCO")
"no"
>>> assigned_label("NCCNCCNCCNCCN")
"no"
>>> assigned_label("O=NN1CCSC1CO (stereo not drawn)")
"yes"
>>> assigned_label("Nc1cc([N+](=O)[O-])cc([N+](=O)[O-])c1")
"yes"
>>> assigned_label("C=CC(=O)OCCOCCOC(=O)C=C")
"no"
>>> assigned_label("Cc1cc2[nH]c3cc(C)c4ccccc4c3c2c2ccccc12")
"yes"
>>> assigned_label("O=c1[nH]c2ccccc2n1C1CCN(CCCC(c2ccc(F)cc2)c2ccc(F)cc2)CC1")
"no"
>>> assigned_label("COc1cc([N+](=O)[O-])ccc1N=NC(C(C)=O)C(=O)Nc1ccccc1OC (stereo not drawn)")
"no"
>>> assigned_label("Oc1ccc2c(O)c3ccccc3cc2c1O")
"no"

Where do these numbers come from? They come from PubChem BioAssay AID1259407.
